Listed molecules paired with reported remaining at 10 min, 0.5 µM
Assay: Metabolic stability in mouse liver microsomes assessed as parent compound remaining at 0.5 uM measured after 10 mins in presence of NADPH by LC-MS/MS analysis
Type: ADME, Microsome
Conditions: read-out: Stability
Just the number please, in %, no unit attached.

Illustrative cases are given below, each with its answer.
structure_smiles=Cc1ccc(Nc2nccc(C(=O)Nc3cnccc3-c3ccccc3)n2)cc1 measure="remaining at 10 min, 0.5 µM" value_units=% result_number=49
structure_smiles=N#Cc1ccc(Nc2nccc(C(=O)Nc3cnccc3-c3ccccc3)n2)cc1Cl measure="remaining at 10 min, 0.5 µM" value_units=% result_number=50

So what does the record say about remaining at 10 min, 0.5 µM for N#Cc1ccc(Nc2nccc(C(=O)Nc3cncnc3OCC(F)(F)F)n2)cc1 ?
42

Give its remaining at 10 min, 0.5 µM value. Item: O=C(Nc1cnccc1-c1ccccc1)c1ccnc(Nc2ccncc2)n1
34

Which measured remaining at 10 min, 0.5 µM value corresponds to CS(=O)(=O)c1ccc(Nc2nccc(C(=O)Nc3cnccc3-c3ccccc3)n2)cc1 ?
33

Any idea what remaining at 10 min, 0.5 µM was measured for O=C(Nc1cnccc1OCC(F)(F)F)c1ccnc(Nc2ccccc2)n1 ?
14

// returns reported remaining at 10 min, 0.5 µM for input O=C(Nc1cnccc1-c1ccc(F)cc1)c1ccnc(Nc2ccc(OC(F)F)cc2)n1
72

Which remaining at 10 min, 0.5 µM reading was recorded for the molecule O=C(Nc1cnccc1-c1ccccc1)c1ccnc(Nc2c(F)cc(Cl)cc2F)n1 ?
14

What value of measured remaining at 10 min, 0.5 µM is listed for COc1ccc(Nc2nccc(C(=O)Nc3cnccc3-c3ccccc3)n2)cc1 ?
45

Any idea what remaining at 10 min, 0.5 µM was measured for O=C(Nc1cnccc1-c1ccccc1)c1ccnc(Nc2ccccc2)n1 ?
26

---

Test: Metabolic stability in mouse liver microsomes assessed as parent compound remaining at 0.5 uM measured after 10 mins in presence of NADPH by LC-MS/MS analysis
Assay type: ADME, Microsome
Details: read-out: Stability
Known remaining at 10 min, 0.5 µM of a selection of molecules
Value expressed in %; do not type the unit.

Known results for molecules:
structure_smiles=N#Cc1ccc(Nc2nccc(C(=O)Nc3cnccc3OCC(F)(F)F)n2)cc1 measure="remaining at 10 min, 0.5 µM" value_units=% result_number=60
structure_smiles=N#Cc1ccc(Nc2nccc(C(=O)Nc3cnccc3-c3ccc(F)cc3)n2)cc1 measure="remaining at 10 min, 0.5 µM" value_units=% result_number=66
structure_smiles=O=C(Nc1cncnc1OCC(F)(F)F)c1ccnc(Nc2ccccc2)n1 measure="remaining at 10 min, 0.5 µM" value_units=% result_number=7
structure_smiles=N#Cc1ccc(Nc2nccc(C(=O)Nc3cnccc3-c3ccccc3)n2)cc1 measure="remaining at 10 min, 0.5 µM" value_units=% result_number=49
structure_smiles=O=C(Nc1cnccc1-c1ccc(F)cc1)c1ccnc(Nc2ccc(C(F)(F)F)cc2)n1 measure="remaining at 10 min, 0.5 µM" value_units=% result_number=100

Which remaining at 10 min, 0.5 µM value belongs to O=C(Nc1cnccc1-c1ccc(F)cc1)c1ccnc(Nc2ccc(F)cc2)n1 ?
54

Which remaining at 10 min, 0.5 µM is listed for O=C(Nc1cnccc1-c1ccc(F)cc1)c1ccnc(Nc2ccc(Cl)cc2)n1 ?
79

Need remaining at 10 min, 0.5 µM of Cc1cc(C#N)ccc1Nc1nccc(C(=O)Nc2cnccc2-c2ccccc2)n1 , thanks.
43

// remaining at 10 min, 0.5 µM lookup, key: O=C(Nc1cnccc1-c1ccccc1)c1ccnc(Nc2ccc(OC(F)(F)F)cc2)n1
77

Given the molecule O=C(Nc1cnccc1-c1ccc(F)cc1)c1ccnc(Nc2ccccc2)n1 , what is its reported remaining at 10 min, 0.5 µM?
42
